Test System: HLA-A*02:01
Assay Protocol: IEDB peptide-MHC binding, purified MHC/competitive/fluorescence; filed as Kd, often an IC50 or EC50 that approximates it; bounds were set here for any values at or beyond the usual limits of such assays
Condition Description: source organism: Mycobacterium tuberculosis variant bovis BCG str. Pasteur 1173P2
Measurement Label: Kd

Which Kd value is on record for AEDLADHHV ?
≥ 20 µM

====

Test System: HLA-A*33:01
Assay Protocol: IEDB peptide-MHC binding, purified MHC/competitive/radioactivity; filed as Kd, often an IC50 or EC50 that approximates it; bounds were set here for any values at or beyond the usual limits of such assays
Condition Description: source organism: Mammarenavirus juninense
Measurement Label: pKd
pKd (log units): -log10 of the concentration in mol/L.

If you can, please state the reported pKd value of SWPVQCPLDH .
4.71
